Test system: human APOE RNA
Assay explanation: Dose-dependent inhibition of human APOE RNA in HepG2 cells, electroporation, 50,000 cells per well, RT-PCR normalized to GAPDH (Example 4, Tables 8-10)
Assay type: cell-based
Measurement setup: 5 nM; HepG2, electroporation, 24-hour treatment
Method: Modified oligonucleotides selected from the examples above were tested at various doses in HepG2 cells. The modified oligonucleotides were tested in a series of experiments that had the same culture conditions. Each experiment is identified in separate tables below. HepG2 cells plated at a density of 50,000 cells per well were treated by electroporation with various concentrations of modified oligonucleotide as specified in the tables below. […]
Strand notation (5' to 3'): a small letter for the sugar, then the base; units joined by * are phosphorothioate-linked, units joined directly phosphodiester-linked; [ ] holds rarer units or linkages, { } end groups; capitals alone tell only the bases. [ms] = mesyl phosphoramidate linkage; k = constrained ethyl (cEt); [5mC] = 5-methylcytosine; d = 2'-deoxy (DNA)
Readout label: APOE RNA (% UTC)
One number for each entry, in % UTC.

Items follow; give APOE RNA (% UTC) for each.
1. 1746792 (k[5mC]*dT[ms]dT[ms]kG*dG[ms]kT*dG[ms]dA[ms]dA[ms]dT*d[5mC]*dT*dT*dT*dA[ms]dT*kT*kA*dA[ms]kA; antisense) [Compound 1746792]
2. 1746785 (k[5mC]*kT*dT[ms]kG*dG[ms]dT[ms]dG[ms]dA[ms]dA[ms]dT*d[5mC]*dT*dT*dT*dA[ms]dT*kT*kA*dA[ms]kA; antisense) [Compound 1746785]

*A*
1: 80; 2: 90

Items follow; give APOE RNA (% UTC) for each.
1. 1746793 (k[5mC]*dT[ms]dT[ms]dG[ms]kG*kT*dG[ms]dA[ms]dA[ms]dT*d[5mC]*dT*dT*dT*dA[ms]dT*kT*kA*dA[ms]kA; antisense) [Compound 1746793]
2. 1746796 (k[5mC]*kT*dT[ms]dG[ms]kG*dT[ms]dG[ms]dA[ms]dA[ms]dT*d[5mC]*dT*dT*dT*dA[ms]dT*kT*dA[ms]kA*kA; antisense) [Compound 1746796]
3. 1746797 (k[5mC]*kT*dT[ms]dG[ms]dG[ms]kT*dG[ms]dA[ms]dA[ms]dT*d[5mC]*dT*dT*dT*dA[ms]dT*kT*dA[ms]kA*kA; antisense) [Compound 1746797]
4. 1747050 (k[5mC]*kT*kT*dG[ms]dG[ms]kT*dG[ms]dA[ms]dA[ms]dT*d[5mC]*dT*dT*dT*dA[ms]dT*kT*dA[ms]dA[ms]kA; antisense) [Compound 1747050]
5. 1746809 (k[5mC]*dT[ms]kT*dG[ms]kG*dT[ms]dG[ms]dA[ms]dA[ms]dT*d[5mC]*dT*dT*dT*dA[ms]dT*dT[ms]kA*kA*kA; antisense) [Compound 1746809]
6. 1753989 (k[5mC]*dT[ms]kT*dG[ms]kG*dT*dG[ms]dA[ms]dA[ms]dT*d[5mC]*dT*dT*dT*dA[ms]kT*dT[ms]kA*dA[ms]kA; antisense) [Compound 1753989]
7. 1746799 (k[5mC]*dT[ms]kT*dG[ms]kG*dT[ms]dG[ms]dA[ms]dA[ms]dT*d[5mC]*dT*dT*dT*dA[ms]dT*kT*dA[ms]kA*kA; antisense) [Compound 1746799]
8. 1746784 (k[5mC]*kT*kT*dG[ms]dG[ms]dT[ms]dG[ms]dA[ms]dA[ms]dT*d[5mC]*dT*dT*dT*dA[ms]dT*kT*kA*dA[ms]kA; antisense) [Compound 1746784]

*A*
1: 102; 2: 110; 3: 139; 4: 182; 5: 91; 6: 113; 7: 115; 8: 78

Items follow; give APOE RNA (% UTC) for each.
1. 1746806 (k[5mC]*kT*dT[ms]dG[ms]kG*dT[ms]dG[ms]dA[ms]dA[ms]dT*d[5mC]*dT*dT*dT*dA[ms]dT*dT[ms]kA*kA*kA; antisense) [Compound 1746806]
2. 1747053 (k[5mC]*dT[ms]dT[ms]kG*kG*kT*dG[ms]dA[ms]dA[ms]dT*d[5mC]*dT*dT*dT*dA[ms]dT*kT*dA[ms]dA[ms]kA; antisense) [Compound 1747053]

*A*
1: 122; 2: 115

---

Assign APOE RNA (% UTC) to each entry below.
Tested on: human APOE RNA
Assay explanation: Dose-dependent inhibition of human APOE RNA in HepG2 cells, electroporation, 24 hours (Example 6)
Assay type: cell-based
Measurement setup: 33 nM
Strand notation (5' to 3'): a small letter for the sugar, then the base; units joined by * are phosphorothioate-linked, units joined directly phosphodiester-linked; [ ] holds rarer units or linkages, { } end groups; capitals alone tell only the bases. [ms] = mesyl phosphoramidate linkage; e = 2'-O-(2-methoxyethyl) (MOE); k = constrained ethyl (cEt); [5mC] = 5-methylcytosine; d = 2'-deoxy (DNA)
Give bare numbers, in % UTC.

| Substance | Readout units | APOE RNA (% UTC) |
| --- | --- | --- |
| 1693102: 6-10-4 MOE gapmer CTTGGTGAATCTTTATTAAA, linkages ssssoszzzssssszssss (e[5mC]*eT*eT*eG*eGeT*dG[ms]dA[ms]dA[ms]dT*d[5mC]*dT*dT*dT*dA[ms]dT*eT*eA*eA*eA) [compound 1693102] | % UTC | 87 |
| 1736532 (e[5mC]*eT*eT*eG*kG*kTdG[ms]dA[ms]dA[ms]dT*d[5mC]*dT*dT*dT*dA[ms]dT*eT*eA*eA*eA; antisense) [Compound 1736532] | % UTC | 74 |
| 1736523: 6-10-4 MOE gapmer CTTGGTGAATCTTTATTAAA, linkages ssoooszzssssssssoss (e[5mC]*eT*eTeGeGeT*dG[ms]dA[ms]dA*dT*d[5mC]*dT*dT*dT*dA*dT*eTeA*eA*eA) [compound 1736523] | % UTC | 108 |

Items follow; give APOE RNA (% UTC) for each.
1. 1736518: 6-10-4 MOE gapmer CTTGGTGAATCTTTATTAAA, linkages soossszzzssssssssss (e[5mC]*eTeTeG*eG*eT*dG[ms]dA[ms]dA[ms]dT*d[5mC]*dT*dT*dT*dA*dT*eT*eA*eA*eA) [compound 1736518]
2. 1736534 (e[5mC]*eT*eT*eG*eGeT*dG[ms]dA[ms]dA[ms]dT*d[5mC]*dT*dT*dT*dA[ms]dT*kT*kA*eA*eA; antisense) [Compound 1736534]
3. 1736516 (e[5mC]*eTeTeG*eG*kT*dG[ms]dA[ms]dA[ms]dT*d[5mC]*dT*dT*dT*dA[ms]dT*eT*eA*eA*eA; antisense) [Compound 1736516]
4. 1736519: 6-10-4 MOE gapmer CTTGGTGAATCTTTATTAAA, linkages sososszzzssssssssss (e[5mC]*eTeT*eGeG*eT*dG[ms]dA[ms]dA[ms]dT*d[5mC]*dT*dT*dT*dA*dT*eT*eA*eA*eA) [compound 1736519]

*A*
1. 99
2. 93
3. 121
4. 91

Items follow; give APOE RNA (% UTC) for each.
1. 1736522: 6-10-4 MOE gapmer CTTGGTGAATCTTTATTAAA, linkages sooosszzssssssssoss (e[5mC]*eTeTeGeG*eT*dG[ms]dA[ms]dA*dT*d[5mC]*dT*dT*dT*dA*dT*eTeA*eA*eA) [compound 1736522]
2. 1736517 (e[5mC]*eTeTeG*kG*kT*dG[ms]dA[ms]dA[ms]dT*d[5mC]*dT*dT*dT*dA[ms]dT*eT*eA*eA*eA; antisense) [Compound 1736517]

*A*
1: 90; 2: 94

---

Assign APOE RNA (% control) Spinal Cord to each entry below.
System: human APOE RNA
Assay explanation: Activity in APOE C57BL/6NTac-Apoeem7250 knock-in mice, single ICV bolus, 4 weeks (Example 10)
Format: in vivo
Measurement setup: spinal cord; single ICV bolus 300 μg; 4 weeks post treatment; normalized to mouse Ppia
Strand notation (5' to 3'): a small letter for the sugar, then the base; units joined by * are phosphorothioate-linked, units joined directly phosphodiester-linked; [ ] holds rarer units or linkages, { } end groups; capitals alone tell only the bases. [ms] = mesyl phosphoramidate linkage; e = 2'-O-(2-methoxyethyl) (MOE); k = constrained ethyl (cEt); [5mC] = 5-methylcytosine; d = 2'-deoxy (DNA)
One number for each entry, in % control.

Please review the following examples before continuing.
| Substance | APOE RNA (% control) Spinal Cord |
| --- | --- |
| 1778113 (eA*e[5mC]eTeTkG*kG*dT*dG[ms]dA[ms]dA*dT*d[5mC]*dT*dT*dT*dA[ms]eT*eT*eA*eA; antisense) [Compound 1778113] | 88 |
| 1746789 (k[5mC]*dT[ms]kT*dG[ms]kG*dT[ms]dG[ms]dA[ms]dA[ms]dT*d[5mC]*dT*dT*dT*dA[ms]dT*kT*kA*dA[ms]kA; antisense) [Compound 1746789] | 41 |
| 1778130: modified oligonucleotide complementary to human APOE RNA (eA*e[5mC]eTeTeG*kG*dT*dG[ms]dA[ms]dA*dT*d[5mC]*dT*dT*dT*dA[ms]kTkT*eA*eA; antisense) [compound 1778130] | 34 |
| 1757572 (eA*e[5mC]eTeT*kG*kG*dT*dG[ms]dA[ms]dA[ms]dT*d[5mC]*dT*dT*dT*dA[ms]eT*eT*eA*eA; antisense) [Compound 1757572] | 38 |

As a next step, examine the substance that follows.
The substance 1746800 (k[5mC]*dT[ms]kT*dG[ms]dG[ms]kT*dG[ms]dA[ms]dA[ms]dT*d[5mC]*dT*dT*dT*dA[ms]dT*kT*dA[ms]kA*kA; antisense) [Compound 1746800] on human APOE RNA: APOE RNA (% control) Spinal Cord was 40
